Tested on: Escherichia coli
Assay Procedure: Antibacterial activity against Escherichia coli CCM 4517 after 24 hrs by broth microdilution method
Type: functional
Condition Notes: CCM 4517, 24 h
Readout Name: MIC (µM)

compound_string=Cc1cc(NS(=O)(=O)c2ccc(NC(=O)c3cc(Cl)ccc3O)cc2)no1 result_operator== experimental_value=250
compound_string=Cc1cc(NS(=O)(=O)c2ccc(/N=C/c3cc(Cl)ccc3O)cc2)no1 result_operator== experimental_value=125
compound_string=O=S(=O)(Nc1ncccn1)c1ccc(/N=C/c2cc(Cl)ccc2O)cc1 result_operator== experimental_value=62.5
compound_string=Cc1cc(C)nc(NS(=O)(=O)c2ccc(/N=C/c3cc(Cl)ccc3O)cc2)n1 result_operator== experimental_value=500
compound_string=O=S(=O)(Nc1nccs1)c1ccc(/N=C/c2cc(Cl)ccc2O)cc1 result_operator== experimental_value=500
compound_string=Cc1cc(NS(=O)(=O)c2ccc(N)cc2)no1 result_operator=≥ experimental_value=500
